Data provenance: PubChem BioAssay (NCI)

Tested on: NCI-H322M lung
Assay: NCI-60 one-dose screen, 48 h (100 = growth as untreated, 0 = no growth, -100 = all killed)
Conditions: 10 µM unless noted
The panel holds about 83,000 compounds, 20% with a hit somewhere; the sample as a whole holds those more often.
Entries and their measured growth follow.
# unit: % | format: bare number

Previously resolved entries follow.
Cn1c(=O)c2c(nc(NC3=NS(=O)(=O)c4ccccc43)n2Cc2ccccc2)n(C)c1=O ... 101
COc1ccc2c(c1)c(-c1nc(-c3cn(C)c4ncccc34)cs1)cn2CCO ... 77.7
COc1ccc2c(c1)c(-c1nonc1-c1cn(C)c3ccc(OC)cc13)cn2C ... 71.1
NC(CSC(c1ccccc1)(c1ccccc1)c1ccc2c(c1)OCO2)C(=O)O (stereo not given) ... 26.6

Test item O=C(CBr)CN1C(=O)c2ccccc2C1=O ; NCI-H322M lung; reported growth was 101

====

Tested on: RPMI-8226 leukemia
Test: NCI-60 one-dose screen, 48 h (100 = growth as untreated, 0 = no growth, -100 = all killed)
Conditions: 10 µM unless noted
This is part of a sample that, as a whole, favours compounds with a hit. Of some 83,000 tested, about 20% had one in any assay.
Sorting guide: entries reporting growth beneath 40% go in the Criterion met pile, the rest go in the Criterion not met pile.

// query Could you please tell me whether growth recorded for CC(=O)c1cc(-c2ccccc2N)n(-c2ccc3c(c2)OCO3)c1C is less than 40%?
// result Criterion met

// query Could you please tell me whether growth recorded for O=C(c1ccc(Cl)cc1Cl)N1c2ccccc2Sc2ccccc21 is less than 40%?
// result Criterion not met

// query Could you please tell me whether growth recorded for COc1ccc(OC)c(-c2cn3nc(-c4c[nH]c5ccc(Br)cc45)sc3n2)c1 is less than 40%?
// result Criterion not met

// query Could you please tell me whether growth recorded for CCSC1=CC(=O)c2ccccc2C1=O is less than 40%?
// result Criterion not met

// query Could you please tell me whether growth recorded for Cc1ccc(C)c(-n2c(-c3ccc(Br)cc3)csc2=NC(=O)c2ccccc2F)c1 is less than 40%?
// result Criterion met

====

System: HCC-2998 colon
Assay: NCI-60 one-dose screen, 48 h
Conditions: 10 µM unless noted
This is part of a sample that, as a whole, favours compounds with a hit. Of some 83,000 tested, about 20% had one in any assay. Activity calls are given as the source filed them. Rule for the calls: active = growth percent below 10; inactive = the rest.
Allowed answers: active, inactive

Take a look at these entries with their results.
O=C(/C=C/c1ccc(Br)cc1)c1ccc(-n2cc(CN3CCN(c4cc5c(cc4F)c(=O)c(C(=O)O)cn5C4CC4)CC3)nn2)cc1 ... inactive
O=C1NC(=C(Cl)Cl)/C(=N/S(=O)(=O)N2CCCCC2)N1 ... active
COc1cc2c(c(OC)c1OC)C(=O)N[C@@H]1[C@@H](O)[C@@H](O)[C@H](O)C[C@@H]21 ... inactive
COc1cc2c3c(c1O)-c1ccccc1[C@@H]1OC(=O)N(CC2)[C@H]31 ... inactive
COc1cc2cc(NCc3ccc(OC(F)F)cc3)nc(C)c2cc1OC ... inactive

// query Please state the recorded outcome for this compound: COC(=O)Cc1nc(C#N)c(N(C)C)o1
// result inactive

// query Please state the recorded outcome for this compound: Cn1cc(-c2nonc2-c2c[nH]c3ccccc23)c2ccccc21
// result inactive

// query Please state the recorded outcome for this compound: COc1cc(-c2nc(NC(C)=O)sc2-c2ccnc(NCCNS(=O)(=O)c3ccccc3)n2)ccc1Cl
// result inactive

// query Please state the recorded outcome for this compound: COC(=O)C1=C(C)NC(C)=C(C(=O)OCC(C)C)C1c1ccccc1[N+](=O)[O-] (centres undefined)
// result inactive

====

System: UO-31 renal
Experiment: NCI-60 one-dose screen, 48 h (100 = growth as untreated, 0 = no growth, -100 = all killed)
Details: 10 µM unless noted
This is part of a sample that, as a whole, favours compounds with a hit. Of some 83,000 tested, about 20% had one in any assay. Active and inactive are the calls of the source. Rule for the calls: active = growth percent below 10; inactive = the rest.
measurementKind: growth

Previously resolved entries follow.
C=C1C(=O)O[C@H]2[C@H]1CC/C(COC(=O)/C=C\C(=O)NCc1ccc(Cn3c(=O)sn(-c4ccccc4)c3=O)cc1)=C\CC[C@@]1(C)O[C@@H]21 ... 59.4% (inactive)
N#Cc1c(-c2ccccc2)cc(-c2ccccc2)n(CCCC(=O)NO)c1=O ... -24.8% (active)
COc1ccc2nc(Cl)c(/C=C/C(=O)c3ccc(NC(=O)CSc4nnc(-c5ccc(Cl)c(Cl)c5)n4-c4ccccc4)cc3)cc2c1 ... 79.3% (inactive)
COC(=O)c1c2c(n3ccc(C)cc13)C(=O)c1ccccc1C2=O ... 41% (inactive)
CCCCc1oc2ccccc2c1C(=O)c1ccc(O)cc1 ... 78.3% (inactive)
Cc1cc(C(=O)Nc2cc(Nc3ncccc3-c3ncnc4nc[nH]c34)ccc2F)cc(C(F)(F)F)c1 ... 94.1% (inactive)
CCN1C(=O)N(CC)C2C1NN=c1s/c(=C\c3cc4ccccc4[nH]3)c(=O)n12 (configuration not stated) ... 18.7% (inactive)
N=C(N)c1ccc(-c2ccc(-c3ccc(Cl)cc3)o2)o1 ... 46% (inactive)
CCOC(=O)C(=Cc1cccc(C#N)c1)C(=O)OCC ... 54.3% (inactive)
COc1ccc(-c2ccc(-c3ccc(C(=N)N)cn3)s2)cc1 ... 81.2% (inactive)

Test item CCCCCCCCn1ccc2cc(NC(=O)Cn3cc(CN4CCC(C)CC4)nn3)ccc21 ; UO-31 renal; reported growth was -87.7% (active)

Test item CCCCCn1sc(=O)n(Cc2ccc(CNC(=O)OCc3ccc4c(Cl)cc(Cl)c(O)c4n3)cc2)c1=O ; UO-31 renal; reported growth was 11.6% (inactive)

Test item Cc1ccc(Nc2nc(-c3ccc(F)cc3)c(C#N)c(=O)n2C)cc1 ; UO-31 renal; reported growth was 44.8% (inactive)

====

System: PC-3 prostate
Assay: NCI-60 one-dose screen, 48 h
Conditions: 10 µM unless noted
About 83,000 compounds went through this panel and 20% of them were active in at least one assay; those are over-represented in the sample as a whole. Calls of active or inactive are those of the source. How the source made its calls: active means growth percent below 10; inactive means the rest.
Allowed answers: active, inactive

Take a look at these entries with their results.
O=C1CCC(C(=O)NN(c2ccccc2)c2ccccc2)N1 (stereo not given) ... inactive
Cc1cc(C)c(-c2c(O)c(Br)c(-c3c(C)cc(C)c(Br)c3C)c(O)c2Br)c(C)c1Br ... inactive
N=C(N)SCc1cccc2c(CSC(=N)N)cccc12 ... inactive
CCOc1ccc(NC(=O)c2cc(OC)c(OC)c(OC)c2)cc1 ... inactive
O=C1CC2C=CCN2C=C1NC(=O)C1CCCCC1 (stereo not given) ... inactive

// query Please state the recorded outcome for this molecule: OC(c1ccccc1)(c1ccccc1)c1ccccc1-c1ccccc1
// result inactive

// query Please state the recorded outcome for this molecule: COc1ccc(OC)c(Nc2nnc(-c3ccc(Cl)cc3)o2)c1
// result inactive

// query Please state the recorded outcome for this molecule: COc1cc2cc(Oc3ccc(NC(=O)Nc4ccccc4)cc3)c(C)nc2cc1OCCN1CCCCC1
// result inactive

// query Please state the recorded outcome for this molecule: CC(=O)c1c(Nc2ccc(F)c(F)c2F)[nH]c2c(F)cc(F)cc2c1=O
// result active

// query Please state the recorded outcome for this molecule: CCN(CC)CCOc1nc2c3ccc(Cl)cc3nn2c2ccccc12
// result inactive

// query Please state the recorded outcome for this molecule: COc1ccc2[nH]cc(-c3nc(-c4cn(C)c5ccncc45)cs3)c2c1
// result inactive

// query Please state the recorded outcome for this molecule: CC1(C)CCC(S(=O)(=O)c2ccc3c(c2)/C(=N\O)c2cc(S(=O)(=O)N4CCN(c5ccc(F)cc5O)CC4)ccc2-3)CC1
// result active

// query Please state the recorded outcome for this molecule: NNC(=S)N/N=C/c1ccccn1
// result inactive

// query Please state the recorded outcome for this molecule: COc1cc(C(=O)C(=O)c2cc(OC)c(O)c(OC)c2)cc(OC)c1O
// result inactive

// query Please state the recorded outcome for this molecule: COc1ccc2nc(Cl)c(/C=C/C(=O)c3ccc(NC(=O)CSc4nnc(-c5ccc(Cl)c(Cl)c5)n4-c4ccccc4)cc3)cc2c1
// result inactive

// query Please state the recorded outcome for this molecule: COc1ccc(NC(=O)c2sc3nc(C)c(C(O)c4ccccc4)cc3c2N)cc1 (stereo not given)
// result inactive

// query Please state the recorded outcome for this molecule: Clc1nn2c(Cn3cnc4c(NCc5ccccc5)ncnc43)nnc2c2ccccc12
// result inactive

// query Please state the recorded outcome for this molecule: COc1cc(C(=O)/C=C/c2c(-c3cccs3)nc3ccccn23)cc(OC)c1OC
// result active

// query Please state the recorded outcome for this molecule: O=C(CCCCCCCCC(=O)N/N=C\c1cc(Cl)ccc1O)N/N=C\c1cc(Cl)ccc1O
// result inactive

// query Please state the recorded outcome for this molecule: COc1ccc(C2C(C#N)=C(N)Oc3c2sc2c(Br)cccc32)cc1 (stereo not given)
// result inactive

// query Please state the recorded outcome for this molecule: CC1=C(C(=O)n2c3ccccc3c3ccccc32)C(c2cccc([N+](=O)[O-])c2)C(C(=O)n2c3ccccc3c3ccccc32)=C(C)N1
// result inactive

// query Please state the recorded outcome for this molecule: CCCCCCCCCCCCCCCCOC(=O)c1c(C)[nH]c(/C=C2\N=C(c3ccc[nH]3)C=C2OC)c1C
// result inactive
